System: passive cutaneous anaphylaxis (PCA) reaction
Assay: passive cutaneous anaphylaxis (PCA) test, i.v. or oral administration
Type: in vivo, male Charles River Wistar rats
Conditions: Rattus norvegicus, iv; I.V., 0.01 mg/kg; read-out: degree (%) of protection, PCA test
Where a name gives a salt, the structure may show the parent alone.
Short version: inhibition in vivo at 0.01 mg/kg at least 70% is met, less is not met.

Here are 3 compounds together with their reported answers.
| Compound | Label value |
| --- | --- |
| CCOC(=O)c1nc2nc3cc(OC)c(O)cc3cc2c(=O)[nH]1 [COOC2 H5/H/H/OH/OCH3/H, Trifluoroacetate] | met |
| COc1cc2nc3nc(C(=O)O)[nH]c(=O)c3cc2cc1O | met |
| CCOC(=O)c1nc2nc3cc(OCC)c(OCC)cc3cc2c(=O)[nH]1 | not met |

Now consider a different compound.
State whether the measured inhibition in vivo at 0.01 mg/kg reaches 70%, counting equality as reaching it, for CCOC(=O)c1nc2nc3cc(OCC)c(OC)cc3cc2c(=O)[nH]1 not met
